# tgt: LRRK2 WT (Homo sapiens)
# Construct: purchased Life Technologies PR8604B
# assay.name: LRRK2 Kinase Activity Assay (LanthaScreen TR-FRET), wild type
# Format: biochemical
# experimental.context: recombinant wild type LRRK2, 25 μM ATP, 400 nM LRRKtide, 60 min; class symbols
endpoint.name: IC50

compound	IC50
C[C@@H]1CCc2cc(C#N)ccc2[C@H]1Oc1ccc2[nH]nc(-c3cnco3)c2c1 (single isomer, unassigned) [176, enantiomer 2]	< 100 nM
N#Cc1ccc2c(c1)CC[C@@H]2Oc1cc2c(-c3cnco3)n[nH]c2cn1 (single isomer, unassigned) [Example 20, enantiomer 2]	100 to 1000 nM
CCc1cc(-c2n[nH]c3ccc(O[C@@H]4CCCc5cc(C#N)cnc54)cc23)ccn1 (single isomer, unassigned) [Example 121, enantiomer 2]	< 100 nM

q: # IC50 lookup, item N#Cc1nc2c(s1)[C@@H](Nc1ccc3[nH]nc(-c4cnco4)c3c1)CCC2 (single isomer, unassigned) [Example 47, enantiomer 1]
a: 100 to 1000 nM

q: # IC50 lookup, item N#Cc1cnc2c(c1)CCC[C@@H]2Nc1ccc2[nH]nc(-c3cnoc3)c2c1 (single isomer, unassigned) [Example 7, enantiomer 1]
a: 1000 to 10000 nM

q: # IC50 lookup, item N#Cc1cc2c(nc1Cl)[C@@H](Oc1ccc3[nH]nc(-c4cnoc4)c3c1)CCC2 (single isomer, unassigned) [178, enantiomer 2]
a: < 100 nM

* * *

# tgt: LRRK2 WT (Homo sapiens, UniProt Q5S007)
# Construct: purchased Life Technologies PR8604B
# Sequence (Q5S007 whole entry): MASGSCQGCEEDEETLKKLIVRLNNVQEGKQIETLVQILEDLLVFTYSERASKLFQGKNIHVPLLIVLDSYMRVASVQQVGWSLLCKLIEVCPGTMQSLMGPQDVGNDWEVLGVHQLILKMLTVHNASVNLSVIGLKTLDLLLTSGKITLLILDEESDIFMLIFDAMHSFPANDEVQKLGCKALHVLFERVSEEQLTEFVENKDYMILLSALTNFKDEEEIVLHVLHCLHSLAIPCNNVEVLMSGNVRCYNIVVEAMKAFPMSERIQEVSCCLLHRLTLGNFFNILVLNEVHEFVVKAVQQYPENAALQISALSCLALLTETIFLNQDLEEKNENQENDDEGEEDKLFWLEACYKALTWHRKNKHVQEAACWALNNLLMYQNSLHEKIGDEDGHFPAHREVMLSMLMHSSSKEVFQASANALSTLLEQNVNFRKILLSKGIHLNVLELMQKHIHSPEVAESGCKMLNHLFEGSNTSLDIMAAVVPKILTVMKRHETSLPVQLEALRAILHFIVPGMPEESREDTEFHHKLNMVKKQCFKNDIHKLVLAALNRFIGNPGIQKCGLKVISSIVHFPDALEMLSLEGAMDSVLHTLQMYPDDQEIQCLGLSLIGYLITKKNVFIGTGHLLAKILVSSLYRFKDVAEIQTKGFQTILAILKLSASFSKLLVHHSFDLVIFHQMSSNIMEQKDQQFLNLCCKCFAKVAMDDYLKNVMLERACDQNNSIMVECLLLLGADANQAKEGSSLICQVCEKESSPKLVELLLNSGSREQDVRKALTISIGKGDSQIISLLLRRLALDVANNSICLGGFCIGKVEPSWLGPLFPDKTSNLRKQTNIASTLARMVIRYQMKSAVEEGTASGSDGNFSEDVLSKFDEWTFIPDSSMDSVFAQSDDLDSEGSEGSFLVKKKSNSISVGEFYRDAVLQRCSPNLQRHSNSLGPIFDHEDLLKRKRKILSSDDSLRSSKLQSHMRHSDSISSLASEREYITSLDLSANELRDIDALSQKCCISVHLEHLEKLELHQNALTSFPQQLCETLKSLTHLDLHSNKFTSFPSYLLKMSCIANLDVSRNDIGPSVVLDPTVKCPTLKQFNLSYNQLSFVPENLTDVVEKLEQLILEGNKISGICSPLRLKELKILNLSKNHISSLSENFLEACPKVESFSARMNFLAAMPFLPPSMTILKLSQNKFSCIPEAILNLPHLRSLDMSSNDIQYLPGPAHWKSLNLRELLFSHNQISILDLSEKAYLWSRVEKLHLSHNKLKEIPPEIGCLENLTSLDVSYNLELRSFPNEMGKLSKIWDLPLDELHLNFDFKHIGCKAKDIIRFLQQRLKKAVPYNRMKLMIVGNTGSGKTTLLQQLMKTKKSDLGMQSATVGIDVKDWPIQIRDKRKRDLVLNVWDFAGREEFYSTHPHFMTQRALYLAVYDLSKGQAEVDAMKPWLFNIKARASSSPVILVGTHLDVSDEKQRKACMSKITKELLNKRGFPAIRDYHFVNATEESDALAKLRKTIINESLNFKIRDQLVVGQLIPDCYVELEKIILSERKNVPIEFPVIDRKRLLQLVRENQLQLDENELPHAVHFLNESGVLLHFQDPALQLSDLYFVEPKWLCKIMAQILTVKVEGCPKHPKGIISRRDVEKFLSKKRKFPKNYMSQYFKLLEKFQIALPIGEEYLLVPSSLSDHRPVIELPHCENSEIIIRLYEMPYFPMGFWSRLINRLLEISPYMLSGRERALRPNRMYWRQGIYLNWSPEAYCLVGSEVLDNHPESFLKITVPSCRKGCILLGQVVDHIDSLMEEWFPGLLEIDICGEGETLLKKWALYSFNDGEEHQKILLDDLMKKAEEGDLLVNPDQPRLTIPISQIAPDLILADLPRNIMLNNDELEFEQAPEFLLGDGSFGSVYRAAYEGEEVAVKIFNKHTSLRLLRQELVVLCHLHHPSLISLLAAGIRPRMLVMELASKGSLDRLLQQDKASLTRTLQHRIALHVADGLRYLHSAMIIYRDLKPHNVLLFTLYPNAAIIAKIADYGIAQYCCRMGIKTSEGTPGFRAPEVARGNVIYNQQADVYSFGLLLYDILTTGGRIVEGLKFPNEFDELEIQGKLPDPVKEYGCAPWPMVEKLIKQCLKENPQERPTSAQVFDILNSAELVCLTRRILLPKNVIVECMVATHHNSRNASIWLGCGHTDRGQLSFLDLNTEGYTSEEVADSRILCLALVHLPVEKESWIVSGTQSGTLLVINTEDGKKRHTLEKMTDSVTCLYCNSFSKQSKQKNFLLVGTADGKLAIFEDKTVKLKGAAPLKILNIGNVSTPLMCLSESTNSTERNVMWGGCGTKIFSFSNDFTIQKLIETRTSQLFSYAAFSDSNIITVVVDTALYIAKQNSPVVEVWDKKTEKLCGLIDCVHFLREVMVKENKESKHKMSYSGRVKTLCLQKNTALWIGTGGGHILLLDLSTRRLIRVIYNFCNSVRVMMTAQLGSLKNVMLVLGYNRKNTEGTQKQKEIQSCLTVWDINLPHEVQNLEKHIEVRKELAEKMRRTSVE
# assay.name: LRRK2 Kinase Activity Assay (LanthaScreen TR-FRET), wild type
# Format: biochemical
# experimental.context: recombinant wild type LRRK2, 25 μM ATP, 400 nM LRRKtide, 60 min; class symbols
pIC50: −log10 of the molar value.
pIC50 reference

Would you please look over these solved cases?
compound	pIC50
N#Cc1ccc2c(c1)CCC[C@@H]2Nc1ccc2[nH]nc(-c3cccc(C(F)F)c3)c2c1 (single isomer, unassigned) [Example 68]	> 7.00
Cc1cc(C#N)cc2c1[C@@H](Oc1ccc3[nH]nc(-c4cnco4)c3c1)CC2 (single isomer, unassigned) [Example 14, enantiomer 1]	> 7.00
Cc1cc(C#N)cc2c1[C@@H](Oc1ccc3[nH]nc(-c4cnco4)c3c1)CC2 (single isomer, unassigned) [Example 14, enantiomer 2]	> 7.00
N#Cc1ccc2c(c1)CCC[C@@H]2Nc1ccc2[nH]nc(-c3ccc4c(c3)OCO4)c2c1 (single isomer, unassigned) [Example 77]	> 7.00

q: # pIC50 lookup, item N#Cc1cnc2c(c1)CC[C@@H]2Oc1ccc2[nH]nc(-c3cnco3)c2c1 (single isomer, unassigned) [Example 103, enantiomer 2]
a: > 7.00

q: # pIC50 lookup, item N#Cc1ccc2c(c1)CCC[C@@H]2Nc1ccc2[nH]nc(-c3ccc4c(c3)OCCO4)c2c1 (single isomer, unassigned) [Example 84]
a: 6.00 to 7.00

* * *

IC50 reference
# tgt: LRRK2 WT (Homo sapiens, UniProt Q5S007)
# Construct: purchased Life Technologies PR8604B
# assay.name: LRRK2 Kinase Activity Assay (LanthaScreen TR-FRET), wild type
# Type: biochemical
# experimental.context: recombinant wild type LRRK2, 25 μM ATP, 400 nM LRRKtide, 60 min; class symbols

Would you please look over these solved cases?
molecule	tgt	IC50
CC1(C)Cc2cc(C#N)cnc2[C@H]1Nc1ccc2[nH]nc(-c3cnco3)c2c1 (single isomer, unassigned) [Example 172, enantiomer 1]	LRRK2 WT (Homo sapiens, UniProt Q5S007)	100 to 1000 nM
N#Cc1ccc2c(c1)CCC2Oc1ccc2[nH]nc(-c3cnco3)c2c1 (single isomer, unassigned) [Example 3, enantiomer 2]	LRRK2 WT (Homo sapiens, UniProt Q5S007)	< 100 nM

q: Item COc1n[nH]c2ccc(O[C@H]3CCCc4cc(C#N)c(Cl)nc43)cc12 (single isomer, unassigned) [186, enantiomer 1] with LRRK2 WT (Homo sapiens, UniProt Q5S007) - IC50?
a: < 100 nM
